Test: Drug level in C57BL/6J mouse cortex at 10 mg/kg, po after 3 hrs
Assay type: ADME, organism-based
Details: read-out: Drug uptake
readout: concentration at 3 h (ng/g)
Hi! Could you send only the number? It should be in ng/g, unit omitted.

Input line: Query (compound): `COc1cc(-c2nnc3n2CCC[C@@H]3c2ccc(Cl)cc2C(F)(F)F)ccc1-c1cnc(C)o1` ; field requested: concentration at 3 h
Output line: 2330

----------
Assay: Lipophilicity, log D of the compound at pH 7.4 by reversed phase chromatography
Format: physicochemical
Conditions: buffer
Note to self: chromatographic logD under 3 means condition met, ties and anything higher get condition not met.

Please review the following examples before continuing.
{"compound": "COc1cc(-c2nnc3n2CCC=C3c2ccc(Cl)c(Cl)c2)ccc1-c1cnc(C)o1", "class.label": "condition not met"}
{"compound": "COc1cc(-c2nnc3n2CCCC3c2ccc(N3CCOCC3)cc2)ccc1-c1cnc(C)o1 (configuration not stated)", "class.label": "condition met"}
{"compound": "COc1cc(-c2nnn3c2CCCC3c2ccc(Cl)c(Cl)c2)ccc1-c1cnc(C)o1 (configuration not stated)", "class.label": "condition not met"}
{"compound": "COc1cc(-c2nnc3n2CCCC3c2cc(C(F)(F)F)ccc2C(F)(F)F)ccc1-c1cnc(C)o1 (configuration not stated)", "class.label": "condition not met"}

Input line: Does COc1cc(-c2nnc3n2CCCC3c2ccc(Cl)c(Cl)c2)ccc1-c1cnc(C)o1 (configuration not stated) have chromatographic logD strictly under 3?
Output line: condition not met

Input line: Is the reported chromatographic logD for `COc1cc(-c2nnc3n2CCC[C@H]3c2ccc(Cl)cc2C(F)(F)F)ccc1-c1cnc(C)o1` strictly below 3?
Output line: condition not met
